Measured pIC50 of individual entries
Test system: 186277-243-T-J2-PDC complex spheroids, viability
assay-protocol: Anticancer human tumor 186277-243-T-J2-PDC patient-derived colon adenocarcinoma cell line growth inhibition [RAS]
run-parameters: curve of first compound; second compound 0.1 µM
pIC50: −log10 of the molar value.

Req: # pIC50 lookup, item CC(Nc1ccc2c(c1)OCCn1cc(N3C(=O)OCC3C(F)F)nc1-2)C(N)=O (stereo not drawn) + C#Cc1c(F)ccc2cc(O)cc(-c3ncc4c(N5CC6CCC(C5)N6)nc(OCC56CCCN5CC(F)C6)nc4c3F)c12
Resp: > 7.50

Req: Then what about the molecule Nc1ccn(C2OC(CO)C(O)C2(F)F)c(=O)n1 (stereo not drawn) + C#Cc1c(F)ccc2cc(O)cc(-c3ncc4c(N5CC6CCC(C5)N6)nc(OCC56CCCN5CC(F)C6)nc4c3F)c12 ?
Resp: > 8.50

Req: Then what about the molecule Cc1nc(N2CCC3(CC2)COC(C)C3N)c(CO)nc1Sc1ccnc(N)c1Cl (stereo not drawn) + C#Cc1c(F)ccc2cc(O)cc(-c3ncc4c(N5CC6CCC(C5)N6)nc(OCC56CCCN5CC(F)C6)nc4c3F)c12 ?
Resp: > 7.50

###

Tested on: 186277-243-T-J2-PDC complex spheroids, viability
assay-protocol: Anticancer human tumor 186277-243-T-J2-PDC cell line growth inhibition [RAS];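 note: spheroids exposed to compounds for 7 days before viability read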
run-parameters: second compound 0.00316 µM; first compound 1 µM; stronger effect = lower value
measured-metric: viability, T/C (%)
Return type: number; implicit unit %.

Some entries whose results are on file:
compound: CC(C)NCC(C(=O)N1CCN(c2ncnc3c2C(C)CC3O)CC1)c1ccc(Cl)cc1 (stereo not drawn) + C=CC(=O)N1CCN(c2nc(OCC3CCCN3C)nc3c(F)c(-c4nc(N)cc(C)c4C(F)(F)F)c(Cl)cc23)C(C)C1
numeric-value: 59.2
--
compound: O=C(c1ccc(F)c(F)c1Nc1ccc(I)cc1F)N1CC(O)([C@@H]2CCCCN2)C1 + C=CC(=O)N1CCN(c2nc(OCC3CCCN3C)nc3c(F)c(-c4nc(N)cc(C)c4C(F)(F)F)c(Cl)cc23)C(C)C1
numeric-value: 5.96

Then this compound:
Req: # viability, T/C lookup, item NC1c2ccccc2OC12CCN(c1cnc3c(N4CCCc5ncccc54)n[nH]c3n1)CC2 (stereo not drawn) + C=CC(=O)N1CCN(c2nc(OCC3CCCN3C)nc3c(F)c(-c4nc(N)cc(C)c4C(F)(F)F)c(Cl)cc23)C(C)C1
Resp: 75

###

System: 186277-243-T-J2-PDC complex spheroids, viability
assay-protocol: Anticancer human tumor 186277-243-T-J2-PDC cell line growth inhibition [RAS];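 note: spheroids exposed to compounds for 7 days before viability read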
run-parameters: second compound 0.000949 µM; first compound 0.1 µM; stronger effect = lower value
measured-metric: viability, T/C (%)
Return type: number; implicit unit %.

Some entries whose results are on file:
molecule: CCN1CCN(Cc2ccc(Nc3ncc(F)c(-c4cc(F)c5nc(C)n(C(C)C)c5c4)n3)nc2)CC1 + CCn1c(-c2cccnc2C(C)OC)c2c3cc(ccc31)N1CCOC(CC(NC(=O)C(C(C)C)N(C)C(=O)C3(F)CCN(C(=O)C#CC(C)(C)N(C)C)CC3)C(=O)N3CCCC(N3)C(=O)OCC(C)(C)C2)C1
target-or-test-system: 186277-243-T-J2-PDC complex spheroids, viability
readout-units: %
numeric-value: 140
//
molecule: O=C(c1ccc(F)c(F)c1Nc1ccc(I)cc1F)N1CC(O)([C@@H]2CCCCN2)C1 + CCn1c(-c2cc(N3CCN(C)CC3)cnc2C(C)OC)c2c3cc(ccc31)-c1csc(n1)CC(NC(=O)C1CC1C)C(=O)N1CCCC(N1)C(=O)OCC(C)(C)C2
target-or-test-system: 186277-243-T-J2-PDC complex spheroids, viability
readout-units: %
numeric-value: 29.1
//
molecule: CC(C)NCC(C(=O)N1CCN(c2ncnc3c2C(C)CC3O)CC1)c1ccc(Cl)cc1 (configuration not stated) + CCn1c(-c2cc(N3CCN(C)CC3)cnc2C(C)OC)c2c3cc(ccc31)-c1csc(n1)CC(NC(=O)C1CC1C)C(=O)N1CCCC(N1)C(=O)OCC(C)(C)C2
target-or-test-system: 186277-243-T-J2-PDC complex spheroids, viability
readout-units: %
numeric-value: 101
//
molecule: C=CC(=O)Nc1cc(Nc2nccc(-c3cn(C)c4ccccc34)n2)c(OC)cc1N(C)CCN(C)C + CCn1c(-c2cc(N3CCN(C)CC3)cnc2C(C)OC)c2c3cc(ccc31)-c1csc(n1)CC(NC(=O)C1CC1C)C(=O)N1CCCC(N1)C(=O)OCC(C)(C)C2
target-or-test-system: 186277-243-T-J2-PDC complex spheroids, viability
readout-units: %
numeric-value: 115
//
molecule: CC(C)n1nc(-c2ccc3oc(N)nc3c2)c2c(N)ncnc21 + CCn1c(-c2cccnc2C(C)OC)c2c3cc(ccc31)N1CCOC(CC(NC(=O)C(C(C)C)N(C)C(=O)C3(F)CCN(C(=O)C#CC(C)(C)N(C)C)CC3)C(=O)N3CCCC(N3)C(=O)OCC(C)(C)C2)C1
target-or-test-system: 186277-243-T-J2-PDC complex spheroids, viability
readout-units: %
numeric-value: 33.7
//
molecule: CC1(O)CCCC1n1c(=O)c(C(F)F)cc2cnc(NC3CCN(S(C)(=O)=O)CC3)nc21 (configuration not stated) + CCn1c(-c2cccnc2C(C)OC)c2c3cc(ccc31)N1CCOC(CC(NC(=O)C(C(C)C)N(C)C(=O)C3(F)CCN(C(=O)C#CC(C)(C)N(C)C)CC3)C(=O)N3CCCC(N3)C(=O)OCC(C)(C)C2)C1
target-or-test-system: 186277-243-T-J2-PDC complex spheroids, viability
readout-units: %
numeric-value: 113

Req: Query for 186277-243-T-J2-PDC complex spheroids, viability: what viability, T/C does the record show for C[C@@H](NC(=O)c1ncnc(N)c1Cl)c1ncc(C(=O)Nc2cc(C(F)(F)F)c(Cl)cn2)s1 + CCn1c(-c2cc(N3CCN(C)CC3)cnc2C(C)OC)c2c3cc(ccc31)-c1csc(n1)CC(NC(=O)C1CC1C)C(=O)N1CCCC(N1)C(=O)OCC(C)(C)C2 ?
Resp: 87.5

The values you see were collected from PubChem BioAssay AID2060908.
